Reference for the values: patent US11178873B2

# System: foxtail, giant (giant foxtail, Setaria faberii)
# assay-explanation: Test A preemergence, foxtail, giant
# Type: in vivo
# applied-conditions: 1000 g ai/ha, 0 to 100 scale, 0 no effect, 100 complete control
reported-property: Plant response rating, Foxtail, Giant
One number for each entry.

| compound | Plant response rating, Foxtail, Giant |
| --- | --- |
| Cc1ccc(C2CCC(=O)N2C(=O)Nc2ccccc2F)cc1 (stereo not drawn) | 40 |

Please report Plant response rating, Foxtail, Giant for every entry that follows.
1. O=C(Nc1ccccc1F)N1C(=O)OCC1c1ccc(F)c(F)c1 (stereo not drawn)
2. CN1CC(c2ccc(C(F)(F)F)cc2)N(C(=O)Nc2cccc(F)c2F)C1=O (stereo not drawn)

RESULT:
[50, 70]

Hello, I would appreciate it if you could give Plant response rating, Foxtail, Giant for each entry below.
1. O=C1NCC(c2ccccc2)N1C(=O)Nc1ccccc1 (stereo not drawn)
2. Cc1ccc(C2CCC(=O)N2C(=O)Nc2ccc(F)c(F)c2F)cc1 (stereo not drawn)

RESULT:
[0, 70]

QUERY: Given the compound Cc1ccc(C2CCC(=O)N2C(=O)Nc2ccccc2C(F)(F)F)cc1 (stereo not drawn) , what is its reported Plant response rating, Foxtail, Giant?
RESULT: 20

----------
For each entry below, report its Plant response rating, Pigweed value.
# Test system: pigweed (Amaranthus retroflexus)
# assay-explanation: Test A preemergence, pigweed
# Type: in vivo
# applied-conditions: 31 g ai/ha, 0 to 100 scale, 0 no effect, 100 complete control
Give bare numbers.

Completed entries (count: 6):
| molecule | Plant response rating, Pigweed |
| --- | --- |
| O=C1CCC(c2ccc(Cl)cc2)N1C(=O)Nc1ccc(F)c(F)c1F (stereo not shown) [Compound 22] | 0 |
| CN1CC(c2ccc(C(F)(F)F)cc2)N(C(=O)Nc2ccccc2F)C1=O (stereo not shown) [Compound 13] | 0 |
| O=C1CCC(c2ccc(Cl)cc2)N1C(=O)Nc1ccccc1C(F)(F)F (stereo not shown) [Compound 23] | 0 |
| CN1CC(c2cccc(C(F)(F)F)c2)N(C(=O)Nc2ccc(F)cc2F)C1=O (stereo not shown) [Compound 17] | 0 |
| CN1CC(c2cccc(C(F)(F)F)c2)N(C(=O)Nc2ccccc2F)C1=O (stereo not shown) [Compound 16] | 0 |
| CN1CC(c2ccc(C(F)(F)F)cc2)N(C(=O)Nc2ccc(F)cc2F)C1=O (stereo not shown) [Compound 15] | 0 |

Proceeding to the next molecule to report its Plant response rating, Pigweed.
QUERY: Consider the molecule CN1CC(c2cccc(C(F)(F)F)c2)N(C(=O)Nc2cccc(F)c2F)C1=O (stereo not shown) [Compound 18] and give its measured Plant response rating, Pigweed.
RESULT: 0
